# pIC50 values compiled below
tested on: MOLT-4; test: Antiproliferative activity against human MOLT4 cell line by MTT assay; assay type: functional, cell-based
pIC50: −log10 of the molar value.
Parameter measured: pIC50

substance_smiles=Cc1cc(C)c2oc3cc(=O)c4ncccc4c-3nc2c1 assay_target=MOLT-4 parameter_measured=pIC50 quantitative_result=5.92
substance_smiles=Cc1ccc(C)c2oc3cc(=O)c4ncccc4c-3nc12 assay_target=MOLT-4 parameter_measured=pIC50 quantitative_result=5.80
substance_smiles=Cc1cc2nc3c4cccnc4c(=O)cc-3oc2cc1C assay_target=MOLT-4 parameter_measured=pIC50 quantitative_result=6.52
substance_smiles=Cc1ccc2nc3c4cccnc4c(=O)cc-3oc2c1C assay_target=MOLT-4 parameter_measured=pIC50 quantitative_result=5.52
substance_smiles=Cc1ccc2oc3cc(=O)c4ncccc4c-3nc2c1C assay_target=MOLT-4 parameter_measured=pIC50 quantitative_result=5.57
substance_smiles=O=c1cc2oc3cc4ccccc4cc3nc-2c2cccnc12 assay_target=MOLT-4 parameter_measured=pIC50 quantitative_result=8.00
substance_smiles=O=c1cc2oc3ccc4ccccc4c3nc-2c2cccnc12 assay_target=MOLT-4 parameter_measured=pIC50 quantitative_result=7.40
substance_smiles=Cc1cc(C)c2nc3c4cccnc4c(=O)cc-3oc2c1 assay_target=MOLT-4 parameter_measured=pIC50 quantitative_result=6.30
substance_smiles=O=c1cc2oc3c(ccc4ccccc43)nc-2c2cccnc12 assay_target=MOLT-4 parameter_measured=pIC50 quantitative_result=7.05
substance_smiles=O=c1cc2oc3c4c(ccc3nc-2c2cccnc12)CCCC4 assay_target=MOLT-4 parameter_measured=pIC50 quantitative_result=5.72
substance_smiles=O=c1cc2oc3cc4c(cc3nc-2c2cccnc12)CCCC4 assay_target=MOLT-4 parameter_measured=pIC50 quantitative_result=5.74
substance_smiles=O=c1cc2oc3ccc4c(c3nc-2c2cccnc12)CCCC4 assay_target=MOLT-4 parameter_measured=pIC50 quantitative_result=5.49

---

system: C8166; test: Antiproliferative activity against human C8166 cell line by MTT assay; assay type: functional, cell-based
# IC50 values compiled below
Parameter measured: IC50 (nM)

substance_smiles=O=c1cc2oc3ccc4c(c3nc-2c2cccnc12)CCCC4 assay_target=C8166 quantitative_result=2000
substance_smiles=O=c1cc2oc3ccc4ccccc4c3nc-2c2cccnc12 assay_target=C8166 quantitative_result=1
substance_smiles=O=c1cc2oc3cc4ccccc4cc3nc-2c2cccnc12 assay_target=C8166 quantitative_result=20
substance_smiles=O=c1cc2oc3cc4c(cc3nc-2c2cccnc12)CCCC4 assay_target=C8166 quantitative_result=1000
substance_smiles=O=c1cc2oc3c4c(ccc3nc-2c2cccnc12)CCCC4 assay_target=C8166 quantitative_result=1000
substance_smiles=Cc1ccc2nc3c4cccnc4c(=O)cc-3oc2c1C assay_target=C8166 quantitative_result=500

---

# IC50 values compiled below
system: 5637; test: Antiproliferative activity against human 5637 cell line by MTT assay; type: functional, cell-based
Parameter measured: IC50 (nM)

substance_smiles=Cc1ccc2nc3c4cccnc4c(=O)cc-3oc2c1C assay_target=5637 parameter_measured=IC50 quantitative_result=1800
substance_smiles=O=c1cc2oc3c4c(ccc3nc-2c2cccnc12)CCCC4 assay_target=5637 parameter_measured=IC50 quantitative_result=1100
substance_smiles=O=c1cc2oc3ccc4c(c3nc-2c2cccnc12)CCCC4 assay_target=5637 parameter_measured=IC50 quantitative_result=1900
substance_smiles=Cc1cc2nc3c4cccnc4c(=O)cc-3oc2cc1C assay_target=5637 parameter_measured=IC50 quantitative_result=800
substance_smiles=O=c1cc2oc3c(ccc4ccccc43)nc-2c2cccnc12 assay_target=5637 parameter_measured=IC50 quantitative_result=100
substance_smiles=Cc1ccc2oc3cc(=O)c4ncccc4c-3nc2c1C assay_target=5637 parameter_measured=IC50 quantitative_result=900

---

# pIC50 values compiled below
test system: 5637; assay: Antiproliferative activity against human 5637 cell line by MTT assay; format: functional, cell-based
pIC50: −log10 of the molar value.
Parameter measured: pIC50

substance_smiles=Cc1cc(C)c2nc3c4cccnc4c(=O)cc-3oc2c1 assay_target=5637 quantitative_result=8.30
substance_smiles=Cc1cc(C)c2oc3cc(=O)c4ncccc4c-3nc2c1 assay_target=5637 quantitative_result=6.22
substance_smiles=O=c1cc2oc3cc4ccccc4cc3nc-2c2cccnc12 assay_target=5637 quantitative_result=7.70
substance_smiles=O=c1cc2oc3cc4c(cc3nc-2c2cccnc12)CCCC4 assay_target=5637 quantitative_result=6.00
substance_smiles=O=c1cc2oc3ccc4ccccc4c3nc-2c2cccnc12 assay_target=5637 quantitative_result=8.00
substance_smiles=Cc1ccc(C)c2oc3cc(=O)c4ncccc4c-3nc12 assay_target=5637 quantitative_result=8.00

---

tested on: C8166; experiment: Antiproliferative activity against human C8166 cell line by MTT assay; assay type: functional, cell-based
// returns class 0 unless IC50 is strictly below 200 nM, in which case class 1

substance_smiles=Cc1cc2nc3c4cccnc4c(=O)cc-3oc2cc1C assay_target=C8166 class="class 1"
substance_smiles=O=c1cc2oc3c(ccc4ccccc43)nc-2c2cccnc12 assay_target=C8166 class="class 1"
substance_smiles=Cc1cc(C)c2oc3cc(=O)c4ncccc4c-3nc2c1 assay_target=C8166 class="class 0"
substance_smiles=Cc1ccc2oc3cc(=O)c4ncccc4c-3nc2c1C assay_target=C8166 class="class 0"
substance_smiles=Cc1ccc(C)c2oc3cc(=O)c4ncccc4c-3nc12 assay_target=C8166 class="class 0"

---

tested on: HeLa; assay: Antiproliferative activity against human HeLa cells by MTT assay; assay type: functional, cell-based
Parameter measured: log10(IC50) (log10 of the value in µM)

substance_smiles=Cc1ccc2nc3c4cccnc4c(=O)cc-3oc2c1C quantitative_result=-0.22
substance_smiles=O=c1cc2oc3cc4ccccc4cc3nc-2c2cccnc12 quantitative_result=-1.30
substance_smiles=O=c1cc2oc3cc4c(cc3nc-2c2cccnc12)CCCC4 quantitative_result=0.04
substance_smiles=Cc1cc2nc3c4cccnc4c(=O)cc-3oc2cc1C quantitative_result=-0.10
substance_smiles=O=c1cc2oc3c(ccc4ccccc43)nc-2c2cccnc12 quantitative_result=-0.70
substance_smiles=O=c1cc2oc3c4c(ccc3nc-2c2cccnc12)CCCC4 quantitative_result=0.40
substance_smiles=O=c1cc2oc3ccc4c(c3nc-2c2cccnc12)CCCC4 quantitative_result=0.20
substance_smiles=Cc1ccc(C)c2oc3cc(=O)c4ncccc4c-3nc12 quantitative_result=-0.05
substance_smiles=Cc1ccc2oc3cc(=O)c4ncccc4c-3nc2c1C quantitative_result=0.41
substance_smiles=O=c1cc2oc3ccc4ccccc4c3nc-2c2cccnc12 quantitative_result=-3.00
substance_smiles=Cc1cc(C)c2oc3cc(=O)c4ncccc4c-3nc2c1 quantitative_result=0.23
substance_smiles=Cc1cc(C)c2nc3c4cccnc4c(=O)cc-3oc2c1 quantitative_result=-0.70
